- System: SW1353
- assay_protocol: relative viability vs DMSO control (72 h) (fraction); higher = more viable cells
- test_conditions: 0.04115 µM
# key: entry, value: relative viability
readout_kind: relative viability

molecule_smiles	numeric_result
CO[C@@H]1[C@H](N(C)C(=O)c2ccccc2)C[C@H]2O[C@]1(C)n1c3ccccc3c3c4c(c5c6ccccc6n2c5c31)C(=O)NC4	0.879
CO[C@H]1C[C@@H]2CC[C@@H](C)[C@@](O)(O2)C(=O)C(=O)N2CCCC[C@H]2C(=O)O[C@H]([C@H](C)C[C@@H]2CC[C@@H](O)[C@H](OC)C2)CC(=O)[C@H](C)/C=C(\C)[C@@H](O)[C@@H](OC)C(=O)[C@H](C)C[C@H](C)/C=C/C=C/C=C/1C	0.782
